Target: T1, GST-DnaA (Borrelia burgdorferi, UniProt P33768 1-486)
T1 sequence: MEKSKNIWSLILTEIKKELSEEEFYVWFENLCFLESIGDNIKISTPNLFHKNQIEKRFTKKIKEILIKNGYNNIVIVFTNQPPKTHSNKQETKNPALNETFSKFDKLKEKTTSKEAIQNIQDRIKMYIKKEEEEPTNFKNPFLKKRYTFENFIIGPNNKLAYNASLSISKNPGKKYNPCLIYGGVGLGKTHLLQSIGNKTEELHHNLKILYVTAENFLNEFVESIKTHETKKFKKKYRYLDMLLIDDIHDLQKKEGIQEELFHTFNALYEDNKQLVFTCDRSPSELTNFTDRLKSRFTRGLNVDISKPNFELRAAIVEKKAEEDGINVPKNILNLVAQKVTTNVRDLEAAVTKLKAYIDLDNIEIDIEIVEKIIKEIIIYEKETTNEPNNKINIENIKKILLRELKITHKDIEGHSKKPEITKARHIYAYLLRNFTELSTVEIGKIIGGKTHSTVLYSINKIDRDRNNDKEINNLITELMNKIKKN
Assay: competition; ATP, Mg2+; 10x excess vs N1; 50 mM Tris-HCl (pH not stated), 50 mM KCl, 1 mM EDTA, 1 mM PMSF, 1 mM DTT, 0.01% Tween 20, 10% glycerol; room temperature 15 min; GST-DnaA reactions with 1 mM MgCl2 and 1 mM ATP or ADP; 100 nM DNA or 20 nM RNA probe
Conditions: protein: recombinant; tags: N-terminal GST; blunt

[
  {
    "binder": "Competitor 2 (C2) (dsDNA) DNA 1: GGATTTGTCTTTTTGTAACTTTCAATTTTATTATATTTTTTATGT DNA 2: ACATAAAAAATATAATAAAATTGAAAGTTACAAAAAGACAAATCC",
    "binding result": "binds"
  },
  {
    "binder": "Competitor 6 (C6) (dsDNA) DNA 1: TTTCAATTTTATTATATTTTTTATGTTTCATAAAATTCTTTTAAA DNA 2: TTTAAAAGAATTTTATGAAACATAAAAAATATAATAAAATTGAAA",
    "binding result": "no binding"
  },
  {
    "binder": "Competitor 3 (C3) (dsDNA) DNA 1: TTCATAAAATTCTTTTAAAGTAATAGCTCTGAGATATAAATATGT DNA 2: ACATATTTATATCTCAGAGCTATTACTTTAAAAGAATTTTATGAA",
    "binding result": "binds"
  },
  {
    "binder": "Competitor 5 (C5) (dsDNA) DNA 1: AAATGCAATGTTTTGCTTTATGTTAAGATATGGATTTGTCTTTTT DNA 2: AAAAAGACAAATCCATATCTTAACATAAAGCAAAACATTGCATTT",
    "binding result": "no binding"
  }
]

Just for reference, paper PMC9879097 is where these values come from.
